System: Proteus vulgaris
protocolSummary: Antibacterial activity against Bacillus proteus ATCC 8427 assessed as growth inhibition measured after 24 hrs by two-fold broth dilution method
Format: functional
testContext: ATCC 8427, 24 h
propertyLabel: MIC (µM)
Output spec: scalar in µM, unitless text.

Solved cases (3 shown):
{"entrySmiles": "O=C(Nc1ccccc1Cl)[C@H](O)[C@@H](O)C(=O)N1CCC2(CCNC2=O)CC1", "measuredOn": "Proteus vulgaris", "propertyLabel": "MIC", "result": 160}
{"entrySmiles": "O=C(Nc1ccc(Cl)cc1Cl)[C@H](O)[C@@H](O)C(=O)N1CCC2(CCNC2=O)CC1", "measuredOn": "Proteus vulgaris", "propertyLabel": "MIC", "result": 150}
{"entrySmiles": "O=C(Nc1ccc([N+](=O)[O-])cc1)[C@H](O)[C@@H](O)C(=O)N1CCC2(CCNC2=O)CC1", "measuredOn": "Proteus vulgaris", "propertyLabel": "MIC", "result": 310}

# input Requested field: MIC. Item: COc1cccc(NC(=O)[C@H](O)[C@@H](O)C(=O)N2CCC3(CCNC3=O)CC2)c1
# output 650

* * *

Test system: Aspergillus fumigatus
protocolSummary: Antifungal activity against Aspergillus fumigatus GIMCC 3.19 assessed as fractional inhibitory concentration index after 24 hrs in presence of fluconazole by two-dimensional broth microdilution checkboard assay
Format: functional
The following molecules are listed with their measured fractional inhibitory concentration index (FICI) values.
Respond numerically, and do not add a unit to the figure.

Solved cases (3 shown):
{"entrySmiles": "O=C(Nc1ccc(F)c(Cl)c1)[C@H](O)[C@@H](O)C(=O)N1CCC2(CCNC2=O)CC1", "result": 1.5}
{"entrySmiles": "O=C(Nc1cc(C(F)(F)F)cc(C(F)(F)F)c1)[C@H](O)[C@@H](O)C(=O)N1CCC2(CCNC2=O)CC1", "result": 0.8}
{"entrySmiles": "COc1ccc(NC(=O)[C@H](O)[C@@H](O)C(=O)N2CCC3(CCNC3=O)CC2)cc1", "result": 1}

Consider the record given below.
# input Requested field: fractional inhibitory concentration index (FICI). Item: O=C(Nc1ccc(Cl)cc1)[C@H](O)[C@@H](O)C(=O)N1CCC2(CCNC2=O)CC1
# output 0.8

* * *

System: Candida albicans
protocolSummary: Antifungal activity against Candida albicans ATCC 90023 assessed as growth inhibition measured after 24 hrs by two-fold broth dilution method
Type: functional
testContext: ATCC 90023, 24 h
Values of MIC strictly less than 300 µM map to condition met, and values of at least 300 µM map to condition not met.

{"entrySmiles": "O=C(Nc1ccc(F)cc1)[C@H](O)[C@@H](O)C(=O)N1CCC2(CCNC2=O)CC1", "classLabel": "condition not met"}
{"entrySmiles": "OC(Cn1cncn1)(Cn1cncn1)c1ccc(F)cc1F", "classLabel": "condition met"}
{"entrySmiles": "COc1ccccc1NC(=O)[C@H](O)[C@@H](O)C(=O)N1CCC2(CCNC2=O)CC1", "classLabel": "condition met"}

# input Lab note: MIC threshold 300 µM. Does this compound come in strictly under it? O=C(Nc1ccc(Cl)cc1)[C@H](O)[C@@H](O)C(=O)N1CCC2(CCNC2=O)CC1
# output condition not met

# input Please give the result for NC(=O)OC[C@H](O)[C@@H](O)[C@H](N)C(=O)N[C@H](C(=O)O)[C@H]1O[C@@H](n2cc(CO)c(=O)[nH]c2=O)[C@H](O)[C@@H]1O too.
# output condition met

# input Please give the result for Cc1ccc(NC(=O)[C@H](O)[C@@H](O)C(=O)N2CCC3(CCNC3=O)CC2)cc1 too.
# output condition not met

# input Please give the result for O=C(Nc1cccc(Br)c1)[C@H](O)[C@@H](O)C(=O)N1CCC2(CCNC2=O)CC1 too.
# output condition not met

# input Please give the result for O=C(Nc1ccc(F)cc1F)[C@H](O)[C@@H](O)C(=O)N1CCC2(CCNC2=O)CC1 too.
# output condition not met

# input Please give the result for Cc1ccccc1NC(=O)[C@H](O)[C@@H](O)C(=O)N1CCC2(CCNC2=O)CC1 too.
# output condition met

# input Please give the result for O=C(Nc1ccc([N+](=O)[O-])cc1)[C@H](O)[C@@H](O)C(=O)N1CCC2(CCNC2=O)CC1 too.
# output condition not met

# input Please give the result for O=C(Nc1ccccc1F)[C@H](O)[C@@H](O)C(=O)N1CCC2(CCNC2=O)CC1 too.
# output condition not met

# input Please give the result for O=C(Nc1ccccc1Cl)[C@H](O)[C@@H](O)C(=O)N1CCC2(CCNC2=O)CC1 too.
# output condition not met

# input Please give the result for O=C(Nc1ccc(Br)cc1)[C@H](O)[C@@H](O)C(=O)N1CCC2(CCNC2=O)CC1 too.
# output condition met

# input Please give the result for COc1ccc(NC(=O)[C@H](O)[C@@H](O)C(=O)N2CCC3(CCNC3=O)CC2)cc1 too.
# output condition not met

# input Please give the result for O=C(Nc1cc(C(F)(F)F)cc(C(F)(F)F)c1)[C@H](O)[C@@H](O)C(=O)N1CCC2(CCNC2=O)CC1 too.
# output condition met
